- Study Target: Maltase-glucoamylase, intestinal (Rattus norvegicus)
Measured Metric: IC50 (µM)

P: OC[C@H]1O[C@@H](CNCc2ccc(F)cc2)[C@H](O)[C@@H](O)[C@@H]1O
Q: COc1ccc(CNC[C@@H]2O[C@H](CO)[C@@H](O)[C@H](O)[C@H]2O)cc1O
R: O=C(NC[C@@H]1O[C@H](CO)[C@@H](O)[C@H](O)[C@H]1O)c1ccccc1
S: O=C(NC[C@@H]1O[C@H](CO)[C@@H](O)[C@H](O)[C@H]1O)c1ccc(Cl)cc1Cl
T: OC[C@H]1O[C@@H](CNCc2ccccc2)[C@H](O)[C@@H](O)[C@@H]1O
## Task Arrange these compounds by their IC50, starting with the largest number. Use the labels to give the ranking in the order requested.
## Result T, R, S, Q, P

A: COc1cc(CNC[C@@H]2O[C@H](CO)[C@@H](O)[C@H](O)[C@H]2O)ccc1O
B: Cc1ccc(S(=O)(=O)NC[C@@H]2O[C@H](CO)[C@@H](O)[C@H](O)[C@H]2O)cc1
C: OC[C@H]1O[C@@H](CNCc2cccs2)[C@H](O)[C@@H](O)[C@@H]1O
D: O=C(NC[C@@H]1O[C@H](CO)[C@@H](O)[C@H](O)[C@H]1O)c1ccccc1O
E: CC(=O)Oc1cc(C(=O)NC[C@@H]2O[C@H](CO)[C@@H](O)[C@H](O)[C@H]2O)cc(OC(C)=O)c1OC(C)=O
## Task Which order do these items take when sorted by rising IC50? List them. Reply: labels, ordered per the request.
## Result E, A, C, B, D
(E: 7.7 µM, A: 223 µM, C: 324 µM, B: 476 µM, D: 1010 µM)

a: CC(=O)Oc1ccc(C(=O)NC[C@@H]2O[C@H](CO)[C@@H](O)[C@H](O)[C@H]2O)cc1
b: O=C(NC[C@@H]1O[C@H](CO)[C@@H](O)[C@H](O)[C@H]1O)c1cccs1
c: COc1ccc(C(=O)NC[C@@H]2O[C@H](CO)[C@@H](O)[C@H](O)[C@H]2O)cc1
## Task Order the records, beginning with the lowest IC50 and ending with the highest. Lab note: final answer is the ordered label list.
## Result a, b, c

A: COc1cc(/C=C/C(=O)NC[C@@H]2O[C@H](CO)[C@@H](O)[C@H](O)[C@H]2O)ccc1O
B: O=[N+]([O-])c1cccc(CNC[C@@H]2O[C@H](CO)[C@@H](O)[C@H](O)[C@H]2O)c1
C: OC[C@H]1O[C@@H](CNCc2ccc(Cl)c(Cl)c2)[C@H](O)[C@@H](O)[C@@H]1O
## Task Reorder: IC50, max to min. As an answer, provide the labels arranged in the order called for.
## Result B, A, C

1: O=C(NC[C@@H]1O[C@H](CO)[C@@H](O)[C@H](O)[C@H]1O)c1ccc(F)cc1
2: COc1ccccc1C(=O)NC[C@@H]1O[C@H](CO)[C@@H](O)[C@H](O)[C@H]1O
## Task Determine, for 1 and 2 , which has the greater value of IC50. # respond with the chosen item's label
## Result 2
(2: 719 µM, 1: 464 µM)

1: COc1ccc(CNC[C@@H]2O[C@H](CO)[C@@H](O)[C@H](O)[C@H]2O)cc1
2: COc1ccc(CNC[C@@H]2O[C@H](CO)[C@@H](O)[C@H](O)[C@H]2O)c(OC)c1
## Task Hi there! Just curious which has the higher IC50 between 1 and 2 . # answer = label of selected item
## Result 1
(1: 306 µM, 2: 160 µM)
